Taken from the supplement of paper PMC10724198.

Overview of reported protein stability index across a group of sequences:
Tested on: Saccharomyces cerevisiae
test-description: protein stability index of tFT-peptide fusion (C-terminal peptide) (PSI (0-1 scale)); higher = more stable (slower turnover)
measurement-context: genetic background: wild type; temperature: 30 C

Query the reported protein stability index for Saccharomyces cerevisiae; item: `GVNLFEIVRSVT`
0.717

Query the reported protein stability index for Saccharomyces cerevisiae; item: `SATWQLPGYFLI`
0.681

Others:
Query the reported protein stability index for Saccharomyces cerevisiae; item: `RGGASGPFVWAG`
0.71

Query the reported protein stability index for Saccharomyces cerevisiae; item: `PPPPPPPPPPSS`
0.709

====

Test system: Saccharomyces cerevisiae
test-description: protein stability index of tFT-peptide fusion in wild type (PSI (0-1 scale)); higher = more stable (slower turnover)
measurement-context: genetic background: wild type
Overview of reported protein stability index across a group of sequences:
Lab note: record the figure alone, no unit after it.

Quick one: protein stability index of `PSLAASFWRWVG` ?
0.145

Quick one: protein stability index of `RLIQPLPVPFLN` ?
0.313

Quick one: protein stability index of `CLVSLPILLFFRY` ?
0.0612

Others:
Quick one: protein stability index of `CLVSLPILLFFRT` ?
0.0656

Quick one: protein stability index of `CTSCGPKFRTNN` ?
0.598

Quick one: protein stability index of `CSMRWTFRYWVN` ?
0.0623

====

Tested on: Saccharomyces cerevisiae
test-description: protein stability index of tFT-peptide fusion (C-terminal peptide) (PSI (0-1 scale)); higher = more stable (slower turnover)
measurement-context: genetic background: wild type; temperature: 37 C
readout-name: protein stability index
Lab note: record the figure alone, no unit after it.

Here are 10 sequences together with their reported answers.
Quick one: protein stability index of `LLMCCLPFLWVF` ?
0.316

Quick one: protein stability index of `PRPLLSIYLRHA` ?
0.553

Quick one: protein stability index of `APLSPLLPPFLC` ?
0.595

Quick one: protein stability index of `FFLVILSWWVGE` ?
0.31

Quick one: protein stability index of `VFFVLAVVGADA` ?
0.467

Quick one: protein stability index of `SVVRCWVLLGVA` ?
0.238

Quick one: protein stability index of `LYVQSVCFSVPR` ?
0.486

Quick one: protein stability index of `WFLVFLRVGDGP` ?
0.545

Quick one: protein stability index of `SLCSSVQVWSVV` ?
0.716

Quick one: protein stability index of `PALPQPMNPAPP` ?
0.673

Others:
Quick one: protein stability index of `MSRALSVLVVVA` ?
0.287

Quick one: protein stability index of `FLDYLLFIFFFF` ?
0.473

Quick one: protein stability index of `SFAVSSDYLFII` ?
0.582

Quick one: protein stability index of `LMLISFLFLSLL` ?
0.487

Quick one: protein stability index of `VISVFAISTRVD` ?
0.513

Quick one: protein stability index of `GFGDKVPWRWVI` ?
0.244

Quick one: protein stability index of `GLFGFASPPPPS` ?
0.722

Quick one: protein stability index of `LIEMVTTRYRLC` ?
0.189

Quick one: protein stability index of `LLCLLLVPQPHR` ?
0.638

Quick one: protein stability index of `GLLLRLRNLFCM` ?
0.547

Quick one: protein stability index of `CVFGFACRVLVV` ?
0.364

Quick one: protein stability index of `RCTLFVNPVCVH` ?
0.345

Quick one: protein stability index of `LPALPFPIPTFA` ?
0.179

====

Tested on: Saccharomyces cerevisiae
test-description: protein stability index of tFT-peptide fusion (C-terminal peptide) (PSI (0-1 scale)); higher = more stable (slower turnover)
measurement-context: genetic background: das1 deletion; temperature: 30 C
# if value of protein stability index reaches 0.3, tag y; if it stays below, tag n

See these solved cases before continuing.
Exam item: decide whether the reported protein stability index for `LSVYGFYKMPAG` is at least 0.3.
y

Exam item: decide whether the reported protein stability index for `CGWFVSVGWRLG` is at least 0.3.
y

Exam item: decide whether the reported protein stability index for `VFSLFLVLNYPF` is at least 0.3.
y

Exam item: decide whether the reported protein stability index for `VFLFSLLIVFFP` is at least 0.3.
n

Exam item: decide whether the reported protein stability index for `SRVCVLTGISCA` is at least 0.3.
y

Exam item: decide whether the reported protein stability index for `TFRVLFSVALLV` is at least 0.3.
n

Exam item: decide whether the reported protein stability index for `CFFLSFNVFRLF` is at least 0.3.
y

Exam item: decide whether the reported protein stability index for `VSWWRGVYVVLF` is at least 0.3.
y

Others:
Exam item: decide whether the reported protein stability index for `SVPIAFYLLFFQ` is at least 0.3.
y

Exam item: decide whether the reported protein stability index for `HFASPPAPRSNL` is at least 0.3.
y

Exam item: decide whether the reported protein stability index for `WLCLGLVVGLFL` is at least 0.3.
y

Exam item: decide whether the reported protein stability index for `PRIVLFLRLHSN` is at least 0.3.
y

Exam item: decide whether the reported protein stability index for `WLFFVVLPVKAF` is at least 0.3.
n

Exam item: decide whether the reported protein stability index for `MRLQLTFSILLF` is at least 0.3.
y

Exam item: decide whether the reported protein stability index for `WVCCFVWGCLIR` is at least 0.3.
n

Exam item: decide whether the reported protein stability index for `DGYLFKGIWFFV` is at least 0.3.
y

Exam item: decide whether the reported protein stability index for `MMYTLSMLLRLR` is at least 0.3.
y

Exam item: decide whether the reported protein stability index for `KKKKRVKIQKKN` is at least 0.3.
y

Exam item: decide whether the reported protein stability index for `RNTLLFKRILHI` is at least 0.3.
y

Exam item: decide whether the reported protein stability index for `RTMLSNRIKSFI` is at least 0.3.
y

====

Overview of reported protein stability index across a group of sequences:
Tested on: Saccharomyces cerevisiae
test-description: protein stability index of tFT-peptide fusion (C-terminal peptide) (PSI (0-1 scale)); higher = more stable (slower turnover)
measurement-context: genetic background: cdc53-1; temperature: 37 C
Lab note: record the figure alone, no unit after it.

Here are 5 sequences together with their reported answers.
Quick one: protein stability index of `LLVRYYLFYVLV` ?
0.442

Quick one: protein stability index of `EKHRRYAITKFI` ?
0.694

Quick one: protein stability index of `LSLWLFRILSVR` ?
0.451

Quick one: protein stability index of `VTEGMKEVIKQI` ?
0.702

Quick one: protein stability index of `QPTGYFKLIIIK` ?
0.393

Others:
Quick one: protein stability index of `TYSVIPSLALLP` ?
0.727

Quick one: protein stability index of `SSLRATLLIRAV` ?
0.564

====

Tested on: Saccharomyces cerevisiae
test-description: protein stability index of tFT-peptide fusion (C-terminal peptide) (PSI (0-1 scale)); higher = more stable (slower turnover)
measurement-context: genetic background: wild type; temperature: 30 C
Overview of reported protein stability index across a group of sequences:
Lab note: record the figure alone, no unit after it.

Here are 6 sequences together with their reported answers.
Quick one: protein stability index of HFQYKGKPSRRF [BUB1 C-terminal 12 aa] ?
0.685

Quick one: protein stability index of TVSDGGSIFECS [RAD28 C-terminal 12 aa] ?
0.708

Quick one: protein stability index of IKKEVSRRLNGR [CUR1 C-terminal 12 aa] ?
0.692

Quick one: protein stability index of NQFSQPPSNVEF [SCD6 C-terminal 12 aa] ?
0.697

Quick one: protein stability index of SVLQRRQSTQNS [HAL1 C-terminal 12 aa] ?
0.691

Quick one: protein stability index of VKSSMGPAFRLY [RPL1A C-terminal 12 aa] ?
0.712

Others:
Quick one: protein stability index of KYRRQVRYTQRT [YGL052W C-terminal 12 aa] ?
0.698

Quick one: protein stability index of NDSEPESEYQQE [CUB1 C-terminal 12 aa] ?
0.713

Quick one: protein stability index of EHKGSIEAGFTS [CSS2 C-terminal 12 aa] ?
0.715

Quick one: protein stability index of TDIEPSAKRQKK [RPF2 C-terminal 12 aa] ?
0.695

Quick one: protein stability index of CMESNPPVFMAI [YNL296W C-terminal 12 aa] ?
0.713

====

Test system: Saccharomyces cerevisiae
test-description: protein stability index of tFT-peptide fusion (C-terminal peptide) (PSI (0-1 scale)); higher = more stable (slower turnover)
measurement-context: genetic background: wild type; temperature: 30 C
readout-name: protein stability index
Lab note: record the figure alone, no unit after it.

Quick one: protein stability index of `TGGESEPRDTIQ` ?
0.701

Quick one: protein stability index of `PLPVRPGQHRIL` ?
0.692

Quick one: protein stability index of `PHLSPPGLPTTP` ?
0.685

Quick one: protein stability index of `KRKKQGNKKQEE` ?
0.689

Quick one: protein stability index of `LLDEHGKRRKKI` ?
0.713

Others:
Quick one: protein stability index of `RWWRLRSGGGRR` ?
0.707
